The following are reported pIC50 results, target or system UniProt O75460.
pIC50: −log10 of the molar value.

O=Cc1c(O)ccc2cc(-c3ccc(C(=O)NCCN4CCOCC4)o3)ccc12 [Compound 71] ... > 7.00
Cc1cc(C(=O)N(C)C)sc1-c1ccc2c(C=O)c(O)ccc2c1 [Compound 33] ... > 7.00
CN1CCN(C(=O)c2csc(-c3ccc4c(C=O)c(O)ccc4c3)n2)CC1 [Compound 60] ... > 7.00
CN1CCN(c2ncc(-c3ccc4c(C=O)c(O)ccc4c3)cn2)CC1 [Compound 80] ... > 7.00
CNC(=O)C1CCN(c2ccc3c(C=O)c(O)ccc3c2)C1 (stereo not drawn) [Compound 127] ... > 6.00

Qu. What value of pIC50 on UniProt O75460 does O=Cc1c(O)ccc2cc(CCC(=O)N3CCOCC3)ccc12 [Compound 52] have?
Ans. > 6.00

----------
Parameter pIC50: see the listing below.
- system-tested: human IRE-1α (GST-IRE-1α) (Homo sapiens (Human), UniProt O75460)
- Sequence (O75460 19-977): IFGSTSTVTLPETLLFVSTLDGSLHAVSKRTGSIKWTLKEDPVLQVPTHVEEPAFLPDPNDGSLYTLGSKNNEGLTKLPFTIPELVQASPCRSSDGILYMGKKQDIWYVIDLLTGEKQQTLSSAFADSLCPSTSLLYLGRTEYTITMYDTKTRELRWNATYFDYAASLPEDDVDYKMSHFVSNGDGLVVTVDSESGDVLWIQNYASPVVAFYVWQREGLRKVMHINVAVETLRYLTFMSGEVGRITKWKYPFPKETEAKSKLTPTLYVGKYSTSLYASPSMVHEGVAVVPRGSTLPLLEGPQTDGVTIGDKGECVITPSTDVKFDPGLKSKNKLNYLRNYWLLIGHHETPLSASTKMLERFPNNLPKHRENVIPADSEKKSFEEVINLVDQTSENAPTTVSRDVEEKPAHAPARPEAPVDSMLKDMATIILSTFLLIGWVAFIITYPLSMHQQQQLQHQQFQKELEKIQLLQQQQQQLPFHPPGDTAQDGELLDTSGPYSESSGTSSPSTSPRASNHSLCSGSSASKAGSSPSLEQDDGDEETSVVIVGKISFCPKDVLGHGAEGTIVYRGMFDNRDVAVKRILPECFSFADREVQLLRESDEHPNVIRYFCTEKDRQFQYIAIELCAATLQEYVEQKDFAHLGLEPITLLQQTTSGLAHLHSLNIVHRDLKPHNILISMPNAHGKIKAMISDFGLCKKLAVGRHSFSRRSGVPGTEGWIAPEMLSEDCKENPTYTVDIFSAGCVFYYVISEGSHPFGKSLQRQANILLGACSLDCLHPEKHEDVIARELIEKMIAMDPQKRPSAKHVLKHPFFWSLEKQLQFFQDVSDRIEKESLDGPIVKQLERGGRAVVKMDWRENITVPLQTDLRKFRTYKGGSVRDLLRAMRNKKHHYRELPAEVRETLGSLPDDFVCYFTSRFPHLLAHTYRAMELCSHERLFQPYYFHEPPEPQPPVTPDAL
- procedure-summary: IRE-1α assay (cleavage of mini-XBP-1 mRNA stem-loop substrate)
- Format: biochemical
- condition-notes: average IC50 for inhibition of IRE-1α in vitro
pIC50: −log10 of the molar value. Where a name gives a salt, the structure may show the parent alone.

The following molecules have reported results that may help.
O=Cc1c(O)ccc2cc(-c3ccc(C(=O)NCC4CCCCN4)s3)ccc12 (stereo not drawn) [Compound 41] ... > 7.00
O=Cc1c(O)ccc2cc(N3CCN(Cc4ccccn4)CC3)ccc12 [Compound 96] ... 6.00
CCOC(=O)CCc1ccc2c(C=O)c(O)ccc2c1 [Compound 40] ... < 6.00
CN1CCN(c2ccc3c(C=O)c(O)ccc3c2)CC1 [Compound 58, hydrochloride] ... < 6.00
CC(=O)NC1CCN(c2ccc3c(C=O)c(O)ccc3c2)CC1 [Compound 84] ... > 6.00

Qu. Name the recorded pIC50 for O=Cc1c(O)ccc2cc(N3CCC(NCc4ccccc4)CC3)ccc12 [Compound 97] .
Ans. > 6.00

Qu. So what's the measured pIC50 for this one? O=Cc1c(O)ccc2ccc(N3CCCC3)cc12 [Compound 104]
Ans. < 6.00

Qu. What pIC50 value was documented for this molecule, CN(C)C1CCN(c2ccc3ccc(O)c(C=O)c3c2)C1 (stereo not drawn) [Compound 135] ?
Ans. < 6.00

Qu. Entry O=Cc1c(O)ccc2cc(N3CCC(NCc4cccnc4)CC3)ccc12 [Compound 116] has what pIC50?
Ans. < 6.00

----------
Listed here: molecules with reported pIC50 for human IRE-1α (GST-IRE-1α) (Homo sapiens (Human), UniProt O75460).
pIC50: −log10 of the molar value.

CN1CCN(C(=O)c2cncc(-c3ccc4c(C=O)c(O)ccc4c3)c2)CC1 ... > 6.00
COCCNC(=O)c1ccc(-c2ccc3c(C=O)c(O)ccc3c2)cc1 ... > 6.00

For the next question, use this molecule.
Qu. // fetch human IRE-1α (GST-IRE-1α) (Homo sapiens (Human), UniProt O75460) pIC50 for CN1CCN(C2CCN(c3ccc4c(C=O)c(O)ccc4c3)C2)CC1 (stereo not drawn)
Ans. < 6.00
